B1: NP_006221.1 (parent)
chain: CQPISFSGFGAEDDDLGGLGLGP

# Variants of: B1
# procedure.text: protein stability index of a GFP-peptide fusion (GPS, HEK-293T) (PSI 1-6); higher = more stable;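 also: lentivirally expressed fusion library, cells FACS-sorted into six equal-sized GFP/DsRed ratio bins, PSI computed from sequencing read fractions per bin weighted by bin number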
# particulars: c terminus: native
reported.metric: protein stability index

• D15I = 2.4
• G20M = 2.77
• S5A = 2.77
• A11H = 2.37
• G22C = 2.25
• D14M = 2.29
• D14L = 2.44
• G10M = 2.29
• G22V = 2.11
• L19N = 2.54
• F6A = 3.88
• G10P = 1.83
• G8Y = 2.31
• L21R = 2.74
• D13C = 2.42
• D14K = 2.46
• F9M = 2.41
• F9G = 3.01
• G17I = 1.93
• L16I = 2.21
• G22E = 2.13
• S5K = 2.39
• L16K = 2.25
• E12I = 1.94
• L21A = 4.88
• E12K = 2.17
• I4M = 2.21
• L19P = 2.7
• E12A = 2.32
• C1Y = 2.18
• P23K = 4.66
• P3S = 2.37
• E12R = 2.31
• L21G = 4.98
• L21E = 5.34
• S7G = 2.87
• P3T = 2.09
• D15Y = 2.35
• G18M = 1.99
• S5W = 2.58
• C1I = 2.12
• L19T = 3.02
• I4A = 2.17
• L21T = 3.94
• D13R = 2.04
• D14Y = 2.12
